Sourced from PubChem BioAssay AID651558

- experiment.summary: qHTS Assay to Find Inhibitors of Chronic Active B-Cell Receptor Signaling: Hit Validation in Primary Screen; note: nearly all actives have a fitted effect of over 75% in size; note: potency is the fitted concentration of half-maximal effect
- condition.description: ABC-DLBCL IkB-luc/CBR ratio luminescence, 4 h; series mostly up to 46.1 µM
In all, about 1,200 compounds went through this assay and about 480 (40%) were called active. Roughly 29% stayed inconclusive and do not appear here. The list shows a part of the results.
property.measured: Potency

# example entries with known answers
• COc1cc(C(=O)N/N=C/c2ccsc2C)cc(OC)c1OC = 2310 nM (active)
• C#CCOc1ccc(C2C3=C(COC3=O)Nc3cc4c(cc32)OCO4)cc1OC (stereo unspecified) = 146 nM (active)
• Cc1ccc(/C=N/NC(=O)C2COc3ccccc3O2)s1 (stereo unspecified) = 23100 nM (active)
• CNC(=S)N/N=C(\C)c1ccc(Cl)c(Cl)c1 = inactive
• O=C(CN1CCCc2ccccc21)N/N=C/c1ccccc1O = inactive
• COc1cc(C(=O)N/N=C/C2CC=CCC2)cc(OC)c1OC (stereo unspecified) = inactive
• COc1cc(C(=O)N/N=C/c2cc([N+](=O)[O-])cs2)cc(OC)c1OC = 20600 nM (active)
• Cc1ccsc1/C=N/NC(=O)c1cc(-c2ccncc2)nc2ccccc12 = 1640 nM (active)
• Cc1ccc(/C=N/NC(=O)c2cc(-c3cccnc3)nc3ccccc23)cc1 = 2310 nM (active)
• COc1ccc(-c2cc(C(=O)N/N=C(\C)c3cccnc3)c3ccccc3n2)cc1 = inactive

Proceeding to the next molecule to report its Potency.
Request: Find the recorded Potency belonging to C[C@]12CC[C@H]3C(=CCc4cc(O)ccc43)[C@@H]1CCC2=O and report it.
Result: inactive

* * *

- experiment.summary: qHTS Assay to Find Inhibitors of Chronic Active B-Cell Receptor Signaling: Hit Validation in Primary Screen; note: nearly all actives have a fitted effect of over 75% in size
- condition.description: ABC-DLBCL IkB-luc/CBR ratio luminescence, 4 h; series mostly up to 46.1 µM
Out of some 1,200 compounds screened, about 480 (40%) were called active. Another 29% or so got no clear call; they are omitted. Calls follow the shape of the dose curve; as a rule, active = well fitted inhibition curve with a large enough effect; inconclusive = small, poorly fitted or top-dose-only effect; inactive = no such curve, though single readings can be large or run the other way. The list shows a part of the results.
Lab note: assign the record to one of active, inactive

Request: Just curious, what result did COc1ccc(/C=N\NC(=O)c2c(C)nc3ccc(Br)cn23)cc1 get here?
Result: inactive

Request: Just curious, what result did COc1ccc(-c2nn(-c3ccccc3)cc2C(=O)NC(=S)NNC(=O)c2ccncc2)cc1 get here?
Result: inactive

Request: Just curious, what result did COc1cc(OC)c2c(-c3cccc(-c4ccc(N(C)C)cc4)c3)cc(=O)oc2c1 get here?
Result: active

Request: Just curious, what result did COc1cccc(-c2nnc(SCC(=O)Nc3cc(C)on3)o2)c1 get here?
Result: inactive

Request: Just curious, what result did CC(/C=N/NC(=O)c1cc(-c2ccc(Cl)cc2)nc2ccccc12)=C\c1ccco1 get here?
Result: active

Request: Just curious, what result did CC(/C=N/NC(=O)c1cc(-c2ccncc2)nc2ccccc12)=C\c1ccco1 get here?
Result: active

Request: Just curious, what result did COc1ccc(/C=N/NC(=O)CCn2cnc(-c3ccccc3)c2-c2ccccc2)cc1 get here?
Result: active

Request: Just curious, what result did COc1ccc(/C=N/NC(=O)CCn2cnc(-c3ccccc3)c2-c2ccccc2)cc1OC get here?
Result: active

Request: Just curious, what result did O=C(O)CCCN1C(=O)/C(=C\c2ccccc2OCc2ccccc2)SC1=S get here?
Result: active

Request: Just curious, what result did O=C(CCCN1C(=O)/C(=C/c2ccccc2OC(F)F)SC1=S)Nc1cccnc1 get here?
Result: active
